Listing of entries alongside the reported Inhibition of 5HT uptake in %.
# target desc: 5-HT transporter (Rattus norvegicus, UniProt P31652)
# Construct: these vesicular particles were isolated from the pons and medulla oblongata region of the male rat brain; from tissue; host or cells: rat brain synaptosomes (P2 fraction) from the pons and medulla oblongata of male rats
# Sequence (P31652 whole entry): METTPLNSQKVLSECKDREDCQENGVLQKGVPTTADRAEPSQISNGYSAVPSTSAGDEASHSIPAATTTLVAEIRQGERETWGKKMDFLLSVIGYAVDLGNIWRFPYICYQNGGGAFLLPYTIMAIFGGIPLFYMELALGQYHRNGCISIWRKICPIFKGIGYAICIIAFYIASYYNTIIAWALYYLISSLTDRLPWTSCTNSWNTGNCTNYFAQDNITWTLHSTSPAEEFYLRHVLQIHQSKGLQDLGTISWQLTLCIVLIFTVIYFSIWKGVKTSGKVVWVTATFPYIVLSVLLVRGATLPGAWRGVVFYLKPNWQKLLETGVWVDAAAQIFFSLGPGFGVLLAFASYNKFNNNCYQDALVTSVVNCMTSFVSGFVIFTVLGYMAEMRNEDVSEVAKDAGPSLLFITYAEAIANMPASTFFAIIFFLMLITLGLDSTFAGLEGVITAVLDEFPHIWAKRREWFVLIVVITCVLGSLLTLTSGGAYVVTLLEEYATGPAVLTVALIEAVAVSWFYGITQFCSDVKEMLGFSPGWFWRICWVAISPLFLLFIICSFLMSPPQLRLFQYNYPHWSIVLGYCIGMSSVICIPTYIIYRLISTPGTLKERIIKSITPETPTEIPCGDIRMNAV
# assay explanation: Inhibition of serotonin re-uptake (5-HT uptake inhibition) in rat brain synaptosomes
# Type: biochemical
# Set-up: concentration or dose not given beside the values
# experimental conditions: synaptosomes (P2 fraction) from pons and medulla oblongata region of male rat brain; means from 2 parallel experiments
# Method: The investigations of the inhibition of serotonin re-uptake (5-HT uptake inhibition) were carried out by the methods such as are described in M. Ch. Frink, H.-H.-Hennies, W. Englberger, M. Haurand and B. Wilffert, Arzneim.-Forsch./Drug. Res. 46 (III), 11, 1996, pages 1029-1036. They are introduced herewith as reference and thus form part of the disclosure. To carry out these investigations, synaptosomes were freshly isolated from rat brain areas. […]
Return type: number; implicit unit %.

Past entries and their recorded results:
compound | unit descriptor | Inhibition of 5HT uptake in %
N#CCCn1cccc1C(c1ccccc1F)N1CCCCC1 (centres unmarked) | % | 83
Nc1ccccc1-n1cccc1C(c1c(F)cccc1Cl)N1CCCC1 (centres unmarked) | % | 39
OCCCn1cccc1C(c1ccc(F)cc1)N1CCCCC1 (centres unmarked) | % | 50

Give me measured Inhibition of 5HT uptake in %, please, for this compound: CC(C)(C)c1ccc(C(c2cccn2C(C)(C)C)N2CCCC2)cc1 (centres unmarked)
53

Give me measured Inhibition of 5HT uptake in %, please, for this compound: Brc1cccc(C(c2cccn2Cc2ccccn2)N2CCCC2)c1 (centres unmarked)
43

Give me measured Inhibition of 5HT uptake in %, please, for this compound: O=C(O)c1ccccc1-n1cccc1C(c1cc(Br)ccc1F)N1CCCC1 (centres unmarked)
51

Give me measured Inhibition of 5HT uptake in %, please, for this compound: NC(=S)c1ccccc1-n1cccc1C(c1cccc(Oc2ccccc2)c1)N1CCCCC1 (centres unmarked)
44

Give me measured Inhibition of 5HT uptake in %, please, for this compound: Fc1cc(Br)ccc1C(c1cccn1Cc1ccccn1)N1CCCC1 (centres unmarked)
52

Give me measured Inhibition of 5HT uptake in %, please, for this compound: Cc1cccc(C(c2cccn2CCCO)N2CCCCC2)c1 (centres unmarked)
43

Give me measured Inhibition of 5HT uptake in %, please, for this compound: c1ccc(Oc2cccc(C(c3cccn3Cc3ccccn3)N3CCCCC3)c2)cc1 (centres unmarked)
71

Give me measured Inhibition of 5HT uptake in %, please, for this compound: Fc1ccc(C(c2cccn2CCCl)N2CCCCC2)cc1 (centres unmarked)
40
